Tested on: Trypanosoma brucei brucei
Assay: Anti-trypanosomal activity against Trypanosoma brucei brucei
Type: functional, organism-based
Reported IC50 values are given for each entry in this list.

[
  {
    "smiles.notation": "COc1ccccc1/N=C(\\NCCN1CCOCC1)NC(=O)c1ccccc1",
    "parameter": "IC50",
    "result": "> 10000 nM"
  },
  {
    "smiles.notation": "CCc1ccccc1/N=C(\\NCCN1CCOCC1)NC(=O)c1ccc(F)cc1",
    "parameter": "IC50",
    "result": "1800 nM"
  },
  {
    "smiles.notation": "CCCc1ccc(C(=O)N/C(=N/c2ccccc2CC)NCCN2CCOCC2)cc1",
    "parameter": "IC50",
    "result": "9000 nM"
  }
]

Then this molecule:
Query: IC50; subject: CCc1ccccc1/N=C(\NCCN1CCOCC1)NC(=O)c1cccc(C)c1
1300 nM

====

System: Trypanosoma brucei brucei
Assay: Induction of glycolysis in bloodstream Trypanosoma brucei brucei 427 assessed as increase in pyruvate level at 1 uM incubated for 5 hrs
Format: functional
Activity calls are given as the source filed them. No cut-off for these calls is given here.
Assign a class; possible classes are TRUE = active, FALSE = inactive

# example entries with known answers
[
  {
    "smiles.notation": "Cc1ccc(/N=C(\\NCCN2CCOCC2)NC(=O)c2ccccc2)c(Cl)c1",
    "answer.label": "TRUE"
  },
  {
    "smiles.notation": "CCc1ccccc1/N=C(\\NCCN1CCOCC1)NC(=O)c1ccc(C)cc1",
    "answer.label": "FALSE"
  },
  {
    "smiles.notation": "Cc1ccccc1/N=C(\\NCCN1CCOCC1)NC(=O)c1ccccc1",
    "answer.label": "FALSE"
  }
]

Now take the following compound into account.
Which outcome did this test record for the compound CCc1ccccc1/N=C(\NCCN1CCOCC1)NC(=O)c1ccccc1 ?
FALSE

====

Assay: Cytotoxicity against HEK293 cells
Assay type: toxicity, cell-based
Details: human
pIC50: −log10 of the molar value.
Reported pIC50 values are given for each entry in this list.

[
  {
    "smiles.notation": "CCc1ccccc1/N=C(\\NCCN1CCOCC1)NC(=O)c1ccc(Br)cc1",
    "result": "< 4.08"
  },
  {
    "smiles.notation": "CCc1ccccc1/N=C(\\NCCN1CCOCC1)NC(=O)c1cccc(OC)c1",
    "result": "< 4.08"
  },
  {
    "smiles.notation": "CCc1ccccc1/N=C(\\NCCN1CCOCC1)NC(=O)c1ccccc1F",
    "result": "< 5.00"
  },
  {
    "smiles.notation": "CCc1ccccc1/N=C(\\NCCN1CCOCC1)NC(=O)c1cccc(O)c1",
    "result": "< 4.08"
  }
]

Then this compound:
Query: pIC50; subject: CCc1ccccc1/N=C(\NCCN1CCOCC1)NC(=O)c1cccc(F)c1
< 4.08

====

Assay: Selectivity ratio of IC50 for HEK293 cells to IC50 for Trypanosoma brucei brucei
Assay type: toxicity
Details: human, read-out: Ratio IC50
parameter: selectivity ratio

Answered cases to consult:
[
  {
    "smiles.notation": "CCc1ccccc1/N=C(\\NCCN1CCOCC1)NC(=O)c1cccc(C(C)=O)c1",
    "result": 1
  },
  {
    "smiles.notation": "CCc1ccccc1/N=C(\\NCCN1CCOCC1)NC(=O)c1ccc(OC)cc1",
    "result": "> 8.8"
  },
  {
    "smiles.notation": "CCc1ccccc1/N=C(\\NCCN1CCOCC1)NC(=O)c1cccc(O)c1",
    "result": 1
  }
]

Query: selectivity ratio; subject: CCc1ccccc1/N=C(\NCCN1CCOCC1)NC(=O)c1cccc(OC)c1
> 52

Query: selectivity ratio; subject: CCc1ccccc1/N=C(\NCCN1CCOCC1)NC(=O)c1cccc(F)c1
> 52

Query: selectivity ratio; subject: CCc1ccccc1/N=C(\NCCN1CCOCC1)NC(=O)c1ccc(Br)cc1
> 9.5

Query: selectivity ratio; subject: CCc1ccccc1/N=C(\NCCN1CCOCC1)NC(=O)c1ccc(C)cc1
> 19

Query: selectivity ratio; subject: CCc1ccccc1/N=C(\NCCN1CCOCC1)NC(=O)c1ccccc1F
1

Query: selectivity ratio; subject: CCCc1ccc(C(=O)N/C(=N/c2ccccc2CC)NCCN2CCOCC2)cc1
> 9

Query: selectivity ratio; subject: CCc1ccccc1/N=C(\NCCN1CCOCC1)NC(=O)c1cccc(C)c1
> 64

Query: selectivity ratio; subject: O=C(N/C(=N/c1ccccc1Cl)NCCN1CCOCC1)c1ccccc1
> 11

Query: selectivity ratio; subject: CCc1ccccc1/N=C(\NCCN1CCOCC1)NC(=O)c1ccc(Cl)cc1
> 52

Query: selectivity ratio; subject: CCc1ccccc1/N=C(\NCCN1CCOCC1)NC(=O)c1ccc(F)cc1
46

Query: selectivity ratio; subject: CCc1ccccc1/N=C(\NCCN1CCOCC1)NC(=O)c1ccccc1
≥ 29

Query: selectivity ratio; subject: O=C(N/C(=N/c1ccccc1Br)NCCN1CCOCC1)c1ccccc1
> 19

Query: selectivity ratio; subject: Cc1cc(Br)ccc1/N=C(\NCCN1CCOCC1)NC(=O)c1ccccc1
> 33

====

Reported IC50 values are given for each entry in this list.
System: Trypanosoma brucei brucei
Assay: Anti-trypanosomal activity against Trypanosoma brucei brucei
Assay type: functional, organism-based

Answered cases to consult:
[
  {
    "smiles.notation": "CCc1ccccc1/N=C(\\NCCN1CCOCC1)NC(=O)c1cccc(C(C)=O)c1",
    "IC50": "> 83 µM"
  },
  {
    "smiles.notation": "CCc1ccccc1/N=C(\\NCCN(C)C)NC(=O)c1ccccc1",
    "IC50": "> 10 µM"
  },
  {
    "smiles.notation": "CCc1ccccc1/N=C(\\NCCN1CCCCC1)NC(=O)c1ccccc1",
    "IC50": "> 10 µM"
  },
  {
    "smiles.notation": "CCc1ccccc1/N=C(\\NCCN1CCOCC1)NC(=O)c1ccccc1OC",
    "IC50": "> 10 µM"
  },
  {
    "smiles.notation": "CCc1ccccc1/N=C(\\NCCN1CCOCC1)NC(=O)c1cccc(O)c1",
    "IC50": "> 83 µM"
  },
  {
    "smiles.notation": "O=C(N/C(=N/c1ccccc1)NCCN1CCOCC1)c1ccccc1",
    "IC50": "> 10 µM"
  },
  {
    "smiles.notation": "CCc1ccccc1/N=C(\\NCCN1CCN(C)CC1)NC(=O)c1ccccc1",
    "IC50": "> 10 µM"
  },
  {
    "smiles.notation": "CCc1ccccc1/N=C(\\NCCN1CCOCC1)NC(=O)c1ccccc1Br",
    "IC50": "> 10 µM"
  }
]

Query: IC50; subject: N#Cc1ccccc1/N=C(\NCCN1CCOCC1)NC(=O)c1ccccc1
> 10 µM

Query: IC50; subject: CCc1ccccc1/N=C(\NCCCN1CCOCC1)NC(=O)c1ccccc1
> 10 µM

====

System: Trypanosoma brucei brucei
Test: Induction of glycolysis in bloodstream Trypanosoma brucei brucei 427 assessed as increase in pyruvate level at 1 uM incubated for 5 hrs
Type: functional
Calls of active or inactive are those of the source. The rule behind the calls is not given here.
Assign a class; possible classes are yes (active), no (inactive)

# example entries with known answers
[
  {
    "smiles.notation": "O=C(N/C(=N/c1ccccc1Br)NCCN1CCOCC1)c1ccccc1",
    "answer.label": "yes"
  },
  {
    "smiles.notation": "CCc1ccccc1/N=C(\\NCCN1CCOCC1)NC(=O)c1ccc(F)cc1",
    "answer.label": "no"
  },
  {
    "smiles.notation": "Cc1cc(Br)ccc1/N=C(\\NCCN1CCOCC1)NC(=O)c1ccccc1",
    "answer.label": "yes"
  }
]

Which outcome did this test record for the molecule CCc1ccccc1/N=C(\NCCN1CCOCC1)NC(=O)c1ccc(F)c(F)c1 ?
yes
